Each entry below carries its reported protein stability index.
# System: Saccharomyces cerevisiae
# ASSAY_METHOD_TEXT: protein stability index of tFT-peptide fusion (C-terminal peptide) (PSI (0-1 scale)); higher = more stable (slower turnover)
# CONDITION_DETAILS: genetic background: das1 deletion; temperature: 30 C
// print number alone

PRIMARY_SEQUENCE	ENDPOINT_RESULT
IGPLAFLVFKTA [DYN2 C-terminal 12 aa]	0.67
EEGPFKADHYRY [SAH1 C-terminal 12 aa]	0.701
TTEKKKKKCVLL [RHO1 C-terminal 12 aa]	0.684
DAVAEEVKKILA [LEU2 C-terminal 12 aa]	0.689

The sequence DQTRDFGTSMEL [FOB1 C-terminal 12 aa] , when measured on Saccharomyces cerevisiae, yielded protein stability index of 0.706

Reported Saccharomyces cerevisiae protein stability index for item FTLVGYDKEFSD [ADH6 C-terminal 12 aa] was 0.691

Simply: ITSKRKAELLLK [DIS3 C-terminal 12 aa] , Saccharomyces cerevisiae, protein stability index = 0.723

Reported Saccharomyces cerevisiae protein stability index for item MAEKQIASEFNY [DBP7 C-terminal 12 aa] was 0.721

# value of protein stability index, Saccharomyces cerevisiae, item QMSAMTEKFGKL [YKL068W-A C-terminal 12 aa] = 0.726

Measured protein stability index for this entry SEINDDFHQWAQ [DEP1 C-terminal 12 aa] on Saccharomyces cerevisiae: 0.727

Recorded protein stability index for VLLIRSDKKKKV [YIL102C-A C-terminal 12 aa] on Saccharomyces cerevisiae was 0.71

With Saccharomyces cerevisiae as the test system, AEFLGSFDELVL [EEB1 C-terminal 12 aa] showed protein stability index of 0.723

Entry KPRWYRIWNFWC [GAP1 C-terminal 12 aa] : protein stability index on Saccharomyces cerevisiae = 0.803

These entries and their values trace back to the supplement of paper PMC10724198.
